This collection of values is drawn from paper PMC9656205.

Test: Pharmacokinetics in plasma and A375 tumour tissue after single oral administration
Assay type: in vivo, CD-1 nude mice
Conditions: female, Crl:CD-1-Foxn1nu (CD-1 nude), mouse, A375 tumour tissue homogenate, 1 mg/kg, Trametinib 1 mg/kg single oral, with HDM201 100 mg/kg, A375 tumour, n = 3
METRIC: Cmax (nM)
One number for each entry, in nM.

Entry CC(=O)Nc1cccc(-n2c(=O)n(C3CC3)c(=O)c3c(Nc4ccc(I)cc4F)n(C)c(=O)c(C)c32)c1 needs its Cmax filled in; supply it. 715

====

Assay: Pharmacokinetics in plasma and A375 tumour tissue after single oral administration
Type: in vivo, CD-1 nude mice
Conditions: female, Crl:CD-1-Foxn1nu (CD-1 nude), mouse, plasma, 1 mg/kg, Trametinib 1 mg/kg single oral, with HDM201 100 mg/kg, plasma, n = 3, read-out: Tmax ± SD
METRIC: Tmax (h)
Numbers only, in h.

Report Tmax, nothing else, for this compound: CC(=O)Nc1cccc(-n2c(=O)n(C3CC3)c(=O)c3c(Nc4ccc(I)cc4F)n(C)c(=O)c(C)c32)c1 4

====

Assay: Pharmacokinetics in plasma and A375 tumour tissue after single oral administration
Type: in vivo, CD-1 nude mice
Settings: female, Crl:CD-1-Foxn1nu (CD-1 nude), mouse, plasma, HDM201 100 mg/kg single oral, with Trametinib 1 mg/kg, plasma, n = 3, read-out: AUC0–24h ± SD
METRIC: AUC(0-t)
Please state the value followed by its unit.

Please give the documented AUC(0-t) of COc1ncc(-c2nc3c(n2C(C)C)[C@H](c2ccc(Cl)cc2)N(c2cc(Cl)cn(C)c2=O)C3=O)c(OC)n1 108 µM·h

====

Experiment: Pharmacokinetics in plasma and A375 tumour tissue after single oral administration
Type: in vivo, CD-1 nude mice
Conditions: female, Crl:CD-1-Foxn1nu (CD-1 nude), mouse, A375 tumour tissue homogenate, 1 mg/kg, Trametinib 1 mg/kg single oral, without HDM201, A375 tumour, n = 3, read-out: AUC0–24h ± SD
METRIC: AUC(0-t) (µM·h)
Answers are plain numbers, in µM·h.

Please look at this molecule and report its AUC(0-t): CC(=O)Nc1cccc(-n2c(=O)n(C3CC3)c(=O)c3c(Nc4ccc(I)cc4F)n(C)c(=O)c(C)c32)c1 9.13
